target: T1, GRID2IP-2, second PDZ domain of GRID2IP (human, UniProt A4D2P6 279-356); experiment: fluorescence polarisation; competitive: pre-formed complex of PDZ domain (>60-80% complex) and 50 nM fluorescent tracer peptide, increasing amount of unlabeled PTEN peptide (8 concentrations); 20 mM HEPES pH 7.5, 150 mM NaCl, 0.5 mM TCEP, 0.01% Tween 20; triplicate; competitive binding model (ProFit); apparent; conditions: both partners purified
T1 construct: GRID2IP, human, PDZ domain 2; not shown: His6, N-terminal, kept; MBP, N-terminal, kept
T1 sequence (A4D2P6 279-356): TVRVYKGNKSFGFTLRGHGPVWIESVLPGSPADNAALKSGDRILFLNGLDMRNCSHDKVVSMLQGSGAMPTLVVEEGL
Where no end group is shown, it is not given here. The star is where a group is joined. Biotin = O=C1N[C@H]2[C@H](CS[C@H]2CCCCC(=O)*)N1; TTDS = NCCCOCCOCCOCCCNC(=O)CCC(=O)*
OBSERVATION_TYPE: Kd (µM)

>>> value_observed("{Biotin-TTDS}-DEDQHTQITRV (PTEN, human, canonical isoform I, residues 393-403 with K402R; source: synthetic peptide (Chemical Peptide Synthesis Service of the IGBMC)) [PTEN_KR, 11-mer PTEN PDZ-binding motif peptide with K402R]")
51.6
>>> value_observed("{Biotin-TTDS}-DEDQHTQITK(Ac)V (PTEN, human, canonical isoform I, residues 393-403, K402 acetylated (acK); source: synthetic peptide (Chemical Peptide Synthesis Service of the IGBMC)) [PTEN_Ac, 11-mer PTEN PDZ-binding motif peptide acetylated at K402]")
36.7
>>> value_observed("{Biotin-TTDS}-DEDQHTQITKV (Labelled 'PTEN' in Supp; source: synthetic peptide (Chemical Peptide Synthesis Service of the IGBMC)) [PTEN_11, 11-mer wild-type PDZ-binding motif peptide of PTEN]")
87
